Entries annotated with measured protein stability index
B1: TFE3 (parent)
chain: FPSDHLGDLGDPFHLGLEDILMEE

Variants of: B1
Protocol summary: protein stability index of a GFP-peptide fusion (GPS, HEK-293T) (PSI 1-6); higher = more stable;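 note: lentivirally expressed fusions sorted by FACS into six bins by GFP to DsRed ratio, PSI derived from sequencing read proportions per bin multiplied by bin number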
Experimental setup: c terminus: a fixed tail appended

{"columns": ["Mutation name", "protein stability index"],
 "data": [
  ["H14S", 4.25],
  ["I20T", 3.97],
  ["L6P", 3.57],
  ["L17W", 3.19],
  ["E18H", 2.72],
  ["D19P", 3.31],
  ["D8Y", 2.14],
  ["D4Q", 3.03],
  ["E24H", 2.75],
  ["E18K", 2.85],
  ["D8W", 1.98]
]}
